Tested on: CCRIS mutagenicity, Ames/micronucleus/aberration tests
Assay: CCRIS mutagenicity studies
Settings: Test System: AMES SALMONELLA TYPHIMURIUM; Strain/Indicator: TA1537; Metabolic Activation: NONE
Active and inactive are the calls of the source. The rule behind the calls is not given here.
Allowed answers: Y (active), N (inactive)

Lookup: Field: outcome | Entry: `COP(=S)(OC)Oc1nc(Cl)c(Cl)cc1Cl`
Found: N

Lookup: Field: outcome | Entry: `CCCCCCCCCC(=O)OCCN1CCN(CCCN2c3ccccc3Sc3ccc(C(F)(F)F)cc32)CC1`
Found: N

Lookup: Field: outcome | Entry: `CCCCCCC(=O)OCCN1CCN(CCCN2c3ccccc3Sc3ccc(C(F)(F)F)cc32)CC1`
Found: N

Lookup: Field: outcome | Entry: `COP(=O)(OC)O/C(=C\Cl)c1cc(Cl)c(Cl)cc1Cl`
Found: N

Lookup: Field: outcome | Entry: `CCOC(=O)[C@H](CCc1ccccc1)N[C@@H](C)C(=O)N(CC(=O)O)C1Cc2ccccc2C1`
Found: N

Lookup: Field: outcome | Entry: `O=[N+]([O-])c1ccc2c(c1)-c1ccc([N+](=O)[O-])c3cccc-2c13`
Found: Y

Lookup: Field: outcome | Entry: `CC(=O)OCC(=O)[C@@]1(OC(C)=O)CC[C@H]2[C@@H]3C[C@@H](F)C4=CC(=O)C(Br)=C[C@]4(C)[C@@]3(F)[C@@H](O)C[C@@]21C`
Found: N

Lookup: Field: outcome | Entry: NC(Cc1ccc(Cl)cc1)C(=O)O (stereo not drawn)
Found: N
